System: 496974-208-R-J2-PDC complex spheroids, growth % test/control
Assay comment: Anticancer human tumor 496974-208-R-J2-PDC patient-derived pancreatic carcinoma cell line growth inhibition [CLK]
Cond: second compound 10 µM; first compound 10 µM; stronger effect = lower value
Text: A high-throughput screen of multi-cell type tumor spheroids was designed to identify active combinations of […] and targeted small molecules. Complex spheroids include a stromal component modeled by human endothelial cells (HUVEC) and fibroblasts modeled by human mesenchymal stem cells (MSCs). […] Compounds. […] If the clinical Cmax for an agent had not been determined, the highest concentration tested was 10 microM. […]
Recorded measurements of viability, T/C, one per entry
# unit: % | format: bare number

Answered examples (3):
COc1cccc2c1C(=O)c1c(O)c3c(c(O)c1C2=O)CC(O)(C(=O)CO)CC3OC1CC(N)C(O)C(C)O1 (stereo not drawn) + CN1CCN(c2cc(C(=O)Nc3cc4cc(-c5cnn(C)c5)ccc4cn3)ccn2)CC1 = 5.39
Nc1ccn(C2OC(CO)C(O)C2(F)F)c(=O)n1 (stereo not drawn) + CNC(=O)c1ccc(Nc2nc(OC3CCCC3)c3c(-c4ccc5nc(C)oc5c4)c[nH]c3n2)c(OC)c1 = 43.1
O=C(c1cc(Cc2n[nH]c(=O)c3ccccc23)ccc1F)N1CCN(C(=O)C2CC2)CC1 + CN1CCN(c2cc(C(=O)Nc3cc4cc(-c5cnn(C)c5)ccc4cn3)ccn2)CC1 = 2.09

Next, consider the following molecule.
Param item = C=CC(=O)N1CCN(c2nc(=O)n(-c3c(C)ccnc3C(C)C)c3nc(-c4c(O)cccc4F)c(F)cc23)C(C)C1 (stereo not drawn) + CN1CCN(c2cc(C(=O)Nc3cc4cc(-c5cnn(C)c5)ccc4cn3)ccn2)CC1 ; retrieve measured viability, T/C.
0.94

* * *

Tested on: 496974-208-R-J2-PDC complex spheroids, growth % test/control
Assay comment: Anticancer human tumor 496974-208-R-J2-PDC cell line growth inhibition [CLK];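 note: spheroids exposed to the drugs for 7 days before readout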
Cond: curve of first compound; second compound 0.0316 µM
pIC50 values by entry
// pIC50 is dimensionless: -log10 of concentration (M)

Example cases with answers are listed next.
NC(=O)C(=Cn1cnc(-c2cc(C(F)(F)F)cc(C(F)(F)F)c2)n1)c1cncnc1 + CNC(=O)c1ccc(Nc2nc(OC3CCCC3)c3c(-c4ccc5nc(C)oc5c4)c[nH]c3n2)c(OC)c1 = 6.80
CC(Nc1ccc2c(c1)OCCn1cc(N3C(=O)OCC3C(F)F)nc1-2)C(N)=O (stereo unspecified) + CN1CCN(c2cc(C(=O)Nc3cc4cc(-c5cnn(C)c5)ccc4cn3)ccn2)CC1 = 6.78
CC(Nc1ccc2c(c1)OCCn1cc(N3C(=O)OCC3C(F)F)nc1-2)C(N)=O (stereo unspecified) + CNC(=O)c1ccc(Nc2nc(OC3CCCC3)c3c(-c4ccc5nc(C)oc5c4)c[nH]c3n2)c(OC)c1 = 6.82
C#Cc1c(F)ccc2cc(O)cc(-c3ncc4c(N5CC6CCC(C5)N6)nc(OCC56CCCN5CC(F)C6)nc4c3F)c12 (stereo unspecified) + CN1CCN(c2cc(C(=O)Nc3cc4cc(-c5cnn(C)c5)ccc4cn3)ccn2)CC1 = 7.31

Lookup: pIC50 / 496974-208-R-J2-PDC complex spheroids, growth % test/control / CCc1c2c(nc3ccc(O)cc13)-c1cc3c(c(=O)n1C2)COC(=O)[C@]3(O)CC + CNC(=O)c1ccc(Nc2nc(OC3CCCC3)c3c(-c4ccc5nc(C)oc5c4)c[nH]c3n2)c(OC)c1
7.82

Could you share what pIC50 was measured for C=C(F)C(=O)N1CCN(c2nc(OCC3CCCN3C)nc3c2CCN(c2cccc4cccc(Cl)c24)C3)CC1CC#N (stereo unspecified) + CNC(=O)c1ccc(Nc2nc(OC3CCCC3)c3c(-c4ccc5nc(C)oc5c4)c[nH]c3n2)c(OC)c1 , tested on 496974-208-R-J2-PDC complex spheroids, growth % test/control?
5.26

API: value(readout=pIC50, system=496974-208-R-J2-PDC complex spheroids, growth % test/control) for record CCCS(=O)(=O)Nc1ccc(F)c(C(=O)c2c[nH]c3ncc(-c4ccc(Cl)cc4)cc23)c1F + CN1CCN(c2cc(C(=O)Nc3cc4cc(-c5cnn(C)c5)ccc4cn3)ccn2)CC1
5.06

* * *

Test system: 496974-208-R-J2-PDC complex spheroids, growth % test/control
Assay comment: Anticancer human tumor 496974-208-R-J2-PDC cell line growth inhibition [CLK];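 note: spheroids exposed to the drugs for 7 days before readout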;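 for viability, T/C: 100% = DMSO vehicle control wells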
Cond: second compound 3.16 µM; first compound 1 µM; stronger effect = lower value
Metric: viability, T/C (%)
Answer in %, number only, no unit symbol.

These solved cases illustrate the format of a correct answer.
C#Cc1c(F)ccc2cc(O)cc(-c3ncc4c(N5CC6CCC(C5)N6)nc(OCC56CCCN5CC(F)C6)nc4c3F)c12 (stereo unspecified) + CNC(=O)c1ccc(Nc2nc(OC3CCCC3)c3c(-c4ccc5nc(C)oc5c4)c[nH]c3n2)c(OC)c1 = 25.8
Nc1ccccc1NC(=O)c1ccc(CNC(=O)OCc2cccnc2)cc1 + CNC(=O)c1ccc(Nc2nc(OC3CCCC3)c3c(-c4ccc5nc(C)oc5c4)c[nH]c3n2)c(OC)c1 = 49.7
C=CC(=O)N1CCN(c2nc(=O)n(-c3c(C)ccnc3C(C)C)c3nc(-c4c(O)cccc4F)c(F)cc23)C(C)C1 (stereo unspecified) + CN1CCN(c2cc(C(=O)Nc3cc4cc(-c5cnn(C)c5)ccc4cn3)ccn2)CC1 = 0.75
C=C(F)C(=O)N1CCN(c2nc(OCC3CCCN3C)nc3c2CCN(c2cccc4cccc(Cl)c24)C3)CC1CC#N (stereo unspecified) + CN1CCN(c2cc(C(=O)Nc3cc4cc(-c5cnn(C)c5)ccc4cn3)ccn2)CC1 = 0.45

May I ask what viability, T/C has been recorded for C=C(F)C(=O)N1CCN(c2nc(OCC3CCCN3C)nc3c2CCN(c2cccc4cccc(Cl)c24)C3)CC1CC#N (stereo unspecified) + CNC(=O)c1ccc(Nc2nc(OC3CCCC3)c3c(-c4ccc5nc(C)oc5c4)c[nH]c3n2)c(OC)c1 ?
56.9

Any idea what viability, T/C was measured for COc1c(OCCCN2CCOCC2)ccc2c3n(c(=NC(=O)c4cnc(N)nc4)nc12)CCN3 + CNC(=O)c1ccc(Nc2nc(OC3CCCC3)c3c(-c4ccc5nc(C)oc5c4)c[nH]c3n2)c(OC)c1 ?
6.58

* * *

System: 496974-208-R-J2-PDC complex spheroids, growth % test/control
Assay comment: Anticancer human tumor 496974-208-R-J2-PDC cell line growth inhibition [CLK];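 note: spheroids exposed to the drugs for 7 days before readout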;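 for viability, T/C: 100% = DMSO vehicle control wells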
Cond: second compound 10 µM; first compound 10 µM; stronger effect = lower value
# note: exactly 2% is not below, so it is 0; use 1 for viability, T/C strictly under it

C=CC(=O)N1CCN(c2nc(=O)n(-c3c(C)ccnc3C(C)C)c3nc(-c4c(O)cccc4F)c(F)cc23)C(C)C1 (centres undefined) + CNC(=O)c1ccc(Nc2nc(OC3CCCC3)c3c(-c4ccc5nc(C)oc5c4)c[nH]c3n2)c(OC)c1 = 0
CC(Nc1ccc2c(c1)OCCn1cc(N3C(=O)OCC3C(F)F)nc1-2)C(N)=O (centres undefined) + CN1CCN(c2cc(C(=O)Nc3cc4cc(-c5cnn(C)c5)ccc4cn3)ccn2)CC1 = 1
CC1COCCN1c1cc(C2(S(C)(=N)=O)CC2)nc(-c2ccnc3[nH]ccc23)n1 (centres undefined) + CNC(=O)c1ccc(Nc2nc(OC3CCCC3)c3c(-c4ccc5nc(C)oc5c4)c[nH]c3n2)c(OC)c1 = 0
COC1C=CCC(C)C(C)S(=O)(=O)NC(=O)c2ccc3c(c2)N(CC2CCC21)CC1(CCCc2cc(Cl)ccc21)CO3 (centres undefined) + CN1CCN(c2cc(C(=O)Nc3cc4cc(-c5cnn(C)c5)ccc4cn3)ccn2)CC1 = 1
C#Cc1c(F)ccc2cc(O)cc(-c3ncc4c(N5CC6CCC(C5)N6)nc(OCC56CCCN5CC(F)C6)nc4c3F)c12 (centres undefined) + CN1CCN(c2cc(C(=O)Nc3cc4cc(-c5cnn(C)c5)ccc4cn3)ccn2)CC1 = 1

Does the reported viability, T/C of CC1(C)CCC(CN2CCN(c3ccc(C(=O)NS(=O)(=O)c4ccc(NCC5CCOCC5)c([N+](=O)[O-])c4)c(Oc4cnc5[nH]ccc5c4)c3)CC2)=C(c2ccc(Cl)cc2)C1 + CN1CCN(c2cc(C(=O)Nc3cc4cc(-c5cnn(C)c5)ccc4cn3)ccn2)CC1 stay below 2%?
0

In the record for CC(CO)NC(=O)c1cc(-c2ccc(Cl)cc2)nn(-c2cnn(C)c2)c1=O (centres undefined) + CNC(=O)c1ccc(Nc2nc(OC3CCCC3)c3c(-c4ccc5nc(C)oc5c4)c[nH]c3n2)c(OC)c1 , is viability, T/C less than 2%?
0

viability, T/C under 2%? Item: C#Cc1c(F)ccc2cc(O)cc(-c3ncc4c(N5CC6CCC(C5)N6)nc(OCC56CCCN5CC(F)C6)nc4c3F)c12 (centres undefined) + CNC(=O)c1ccc(Nc2nc(OC3CCCC3)c3c(-c4ccc5nc(C)oc5c4)c[nH]c3n2)c(OC)c1
0

Could you please tell me whether viability, T/C recorded for CC1(C)CCC(CN2CCN(c3ccc(C(=O)NS(=O)(=O)c4ccc(NCC5CCOCC5)c([N+](=O)[O-])c4)c(Oc4cnc5[nH]ccc5c4)c3)CC2)=C(c2ccc(Cl)cc2)C1 + CNC(=O)c1ccc(Nc2nc(OC3CCCC3)c3c(-c4ccc5nc(C)oc5c4)c[nH]c3n2)c(OC)c1 is less than 2%?
0
